# studySystem: T1, human CD20 on cells (human, UniProt P11836 1-297)
# T1 sequence (looked up): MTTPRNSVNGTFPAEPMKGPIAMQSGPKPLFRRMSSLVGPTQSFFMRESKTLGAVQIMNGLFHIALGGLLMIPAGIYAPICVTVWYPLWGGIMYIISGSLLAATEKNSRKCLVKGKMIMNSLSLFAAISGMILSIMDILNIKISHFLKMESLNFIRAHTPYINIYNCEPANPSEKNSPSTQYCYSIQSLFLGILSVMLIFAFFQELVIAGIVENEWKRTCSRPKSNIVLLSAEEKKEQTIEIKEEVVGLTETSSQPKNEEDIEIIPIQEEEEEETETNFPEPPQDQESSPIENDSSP
# assayRemarks: cell-based or functional assay
assayReadout: IC50, flow cytometry based human T cell mediated Ramos killing assay, E:T 10:1 (nM)
Quick reminder: number only, in nM, skip the unit.

Solved entries (count: 2):
Param item = T017000042 (bispecific antibody, TCR x CD20 bispecific Nanobody construct (cluster A); entry includes the FLAG3-HIS6 tag; also called T0170055A02-35GS-20CD019C07-FLAG3-HIS6) EVQLVESGGGLVQPGGSLRLSCAASGDVHKINILGWYRQAPAKEREMVAHITIGDATDYADSAKGRFTISRDEAKNMVYLQMNSLKPEDTAVYFCRAYSRIYPYNYWGQGTLVTVSSGGGGSGGGGSGGGGSGGGGSGGGGSGGGGSGGGGSEVQLVESGGGLVQPGGSLRLSCTFSGGTFSSYTMGWFRQAPGKEREFVAEVRWGGVTTYSNSLKDRFSISEDSVKNAVYLQMNSLKPEDTAVYYCAAVRQMYMTVVPDYWGQGTLVTVSSGAADYKDHDGDYKDHDIDYKDDDDKGAAHHHHHH ; retrieve measured IC50, flow cytometry based human T cell mediated Ramos killing assay, E:T 10:1.
5.7

Returns the measured IC50, flow cytometry based human T cell mediated Ramos killing assay, E:T 10:1 for the input binder. Input: T017000031 (bispecific antibody, TCR x CD20 bispecific Nanobody construct (cluster B); entry includes the FLAG3-HIS6 tag; also called T0170055C07-35GS-20CD019C07-FLAG3-HIS6) EVQLVESGGGLVQPGGSLRLSCITSGETFKINIWGWYRQAPGKQRELVASLTIGGATNYADSVKGRFTISEDSAKNTVYLQMNSLKPEDTAVYFCNAKSRLYPYDYWGQGTLVTVSSGGGGSGGGGSGGGGSGGGGSGGGGSGGGGSGGGGSEVQLVESGGGLVQPGGSLRLSCTFSGGTFSSYTMGWFRQAPGKEREFVAEVRWGGVTTYSNSLKDRFSISEDSVKNAVYLQMNSLKPEDTAVYYCAAVRQMYMTVVPDYWGQGTLVTVSSGAADYKDHDGDYKDHDIDYKDDDDKGAAHHHHHH
1.1

Turning to the following binder.
Recorded IC50, flow cytometry based human T cell mediated Ramos killing assay, E:T 10:1 for T017000051 (bispecific antibody, CD20 x TCR bispecific Nanobody construct (cluster C); entry includes the FLAG3-HIS6 tag; also called 20CD019C07-35GS-T0170061G01-FLAG3-HIS6) EVQLVESGGGLVQPGGSLRLSCTFSGGTFSSYTMGWFRQAPGKEREFVAEVRWGGVTTYSNSLKDRFSISEDSVKNAVYLQMNSLKPEDTAVYYCAAVRQMYMTVVPDYWGQGTLVTVSSGGGGSGGGGSGGGGSGGGGSGGGGSGGGGSGGGGSEVQLVESGGGLVQPGGSLRLSCAASGEIGRINFYRWYRQAPGNQREVVATITIADKTDYADSAKGRFTISRDESRNMVYLQMSSLKPEDTAVYFCHAGSRLYPYDYWGQGTLVTVSSGAADYKDHDGDYKDHDIDYKDDDDKGAAHHHHHH , please?
0.57
